Target: T1, GST-NeDLG PDZ domains 1, 2, Q92796
T1 chain: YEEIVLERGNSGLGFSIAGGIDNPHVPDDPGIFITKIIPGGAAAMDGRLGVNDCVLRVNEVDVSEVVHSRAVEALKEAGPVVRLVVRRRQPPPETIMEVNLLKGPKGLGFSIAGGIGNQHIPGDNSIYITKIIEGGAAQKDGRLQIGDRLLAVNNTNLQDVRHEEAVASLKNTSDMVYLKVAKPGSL
Assay: G' assay; note: key of the grades not given here
This section presents binders with their documented Classification values.
Use A450 class as the unit, but write only the number.

Qu. Need Classification of HPTDITGLPNLSDPSVSTVV (modifications not checked) [NMDA R2C] , thanks.
Ans. 2

Qu. For TREDIYVNYPTFSRRPKTRV (modifications not checked) [DNAM-1] , what is its reported Classification?
Ans. 2

Qu. Which value of Classification has been reported for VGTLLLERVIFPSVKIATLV (modifications not checked) [AdenoE4 typ9] in the records?
Ans. 5

Further cases:
Qu. Look at this binder and give its reported Classification. GGGGGSGGGGGSGIESVKI (modifications not checked) [GLUR2 (glutamate receptor 2-modified)]
Ans. 2

Qu. Reported Classification, binder SLKPGTVLPPPPYRHRNTVV (modifications not checked) [ErbB-4 receptor] : ____
Ans. 1

Qu. # get_value(readout='Classification', item= EDPKDRPSAAHIVEALETDV (modifications not checked) [PDZ-binding kinase (PBK)] )
Ans. 1

Qu. Quick one: Classification for LHNQASVPLEPRPLRRESEI (modifications not checked) [Kir2.1 (inwardly rect. K+ channel)] ?
Ans. 1

Qu. What does the record list as Classification for TFAAGFNSTGLPHSTTRV (modifications not checked) [Neuroligin] ?
Ans. 1

Qu. Entry QISPGGLEPPSEKHFRETEV (modifications not checked) [TAX] has what Classification?
Ans. 5

Qu. What does the record list as Classification for ISGTPTSTMVHGMTSSSSVV (modifications not checked) [Clasp-2] ?
Ans. 2

Qu. Suppose we examine the binder ESSGTQSPKRHSGSYLVTSV (modifications not checked) [APC-adenomatous polyposis coli protein] ; what Classification value has been reported?
Ans. 4
